Taken from patent US12247033B2.

STUDY_TARGET: human CGAS (157-522) (Homo sapiens, UniProt Q8N884);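 further: biochemical enzyme reaction, 2′3′-cGAMP product measured by RapidFire mass spectrometry (MRM) normalised to c-di-UMP internal standard, inhibition of product formation relative to high and low control wells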
Sequence (Q8N884 157-522): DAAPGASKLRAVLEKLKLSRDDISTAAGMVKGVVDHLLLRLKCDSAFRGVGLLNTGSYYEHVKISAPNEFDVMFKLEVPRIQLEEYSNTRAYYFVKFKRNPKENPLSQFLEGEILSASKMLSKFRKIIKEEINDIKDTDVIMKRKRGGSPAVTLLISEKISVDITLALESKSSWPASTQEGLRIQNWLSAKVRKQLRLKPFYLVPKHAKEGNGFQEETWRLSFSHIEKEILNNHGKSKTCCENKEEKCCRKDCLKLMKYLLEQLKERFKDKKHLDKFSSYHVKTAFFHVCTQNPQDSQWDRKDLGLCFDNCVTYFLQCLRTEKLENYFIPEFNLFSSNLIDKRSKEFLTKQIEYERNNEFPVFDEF
pIC50: −log10 of the molar value. Where a name gives a salt, the structure may show the parent alone.
Label Met when pIC50 is at or above 8; anything below gets Not met.

Can O=C(CCCOP(=O)(O)O)OCn1cnc(-c2c(-c3nc(C(F)(F)F)n[nH]3)nc3ncccn23)c1 [Example 29, trifluoroacetic acid salt] be said to have pIC50 at or above 8?
Not met

Quick check, pIC50 >= 8? FC(F)(F)COc1cnc2nc(-c3nc(C(F)(F)F)n[nH]3)c(-c3cnc[nH]3)n2c1
Met

Confirm if pIC50 reported for the compound COCc1cn2c(-c3cnc[nH]3)c(-c3nc(C(F)(F)F)n[nH]3)nc2nc1C(F)(F)F is 8 or above.
Met

Is reported pIC50 greater than or equal to 8 here: OCC(F)(F)c1ccn2c(-c3cnc[nH]3)c(-c3nc(C(F)(F)F)n[nH]3)nc2n1
Met

Does the compound COCc1cnc2nc(-c3nc(C(F)(F)F)n[nH]3)c(-c3cnc[nH]3)n2c1 have recorded pIC50 that is 8 or more?
Met
